The reported measurements were obtained from patent US20240228488A1.

- TARGET UNDER TEST: human activated kallikrein enzyme (Homo sapiens, UniProt P03952)
- Sequence (P03952 391-638 limits assumed): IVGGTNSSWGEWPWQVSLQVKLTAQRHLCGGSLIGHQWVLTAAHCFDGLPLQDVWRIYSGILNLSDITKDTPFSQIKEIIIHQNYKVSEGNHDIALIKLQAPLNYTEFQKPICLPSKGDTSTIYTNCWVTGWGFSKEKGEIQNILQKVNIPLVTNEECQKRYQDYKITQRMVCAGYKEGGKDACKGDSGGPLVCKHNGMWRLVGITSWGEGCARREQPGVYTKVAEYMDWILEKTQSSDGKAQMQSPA
- Sequence (P03952 20-390 partner limits assumed): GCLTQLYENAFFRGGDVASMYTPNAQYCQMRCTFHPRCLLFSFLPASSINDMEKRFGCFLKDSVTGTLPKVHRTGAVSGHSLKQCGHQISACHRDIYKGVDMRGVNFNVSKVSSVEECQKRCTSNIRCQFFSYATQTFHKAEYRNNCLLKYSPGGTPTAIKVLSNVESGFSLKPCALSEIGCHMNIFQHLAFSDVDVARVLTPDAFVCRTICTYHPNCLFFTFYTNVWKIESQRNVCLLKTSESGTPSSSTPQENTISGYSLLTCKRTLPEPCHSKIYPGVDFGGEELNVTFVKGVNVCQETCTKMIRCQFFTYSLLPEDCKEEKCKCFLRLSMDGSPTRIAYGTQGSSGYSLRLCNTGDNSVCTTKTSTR
- METHOD SUMMARY: Plasma kallikrein inhibition, fluorogenic PFR-AMC substrate, 500 pM activated kallikrein format
- Assay type: biochemical
- TEST PARAMETERS: 500 pM activated kallikrein, 300 uM PFR-AMC, 30 min preincubation, 10 min reaction; read-out: Primary Dose Response Assay: Average EC50
pEC50: −log10 of the molar value.
MEASURE NAME: pEC50

Cc1cccc([C@H]2C[C@@H]2C(=O)Nc2cc(NCc3cn4cc(C5CC5)cc(N5CC(=O)N(C)C5=O)c4n3)ncn2)n1 (racemic)    > 9.00
N#CCCc1cc(C2CC2)cn2cc(COc3ccnc(NC(=O)[C@H]4C[C@@H]4c4cccc(Cl)c4)c3)nc12 (racemic)    8.00 to 9.00

We now examine a further compound.
Prompt: Reported pEC50, compound O=C(Nc1cc(NCc2cn3cc(C4CC4)cc(N4CCCC4=O)c3n2)ncn1)[C@H]1C[C@@H]1c1cccc(Cl)c1 [Example 144] : ____
Response: > 9.00

----------
- TARGET UNDER TEST: plasma kallikrein (Homo sapiens)
- Construct: from tissue
- Sequence (P03952 391-638 limits assumed): as the sequence (P03952 391-638 limits assumed) above
- Sequence (P03952 20-390 partner limits assumed): as the sequence (P03952 20-390 partner limits assumed) above
- METHOD SUMMARY: Neat human plasma assay, FXIIa contact pathway-activated, PFR-AMC substrate
- Type: biochemical
- TEST PARAMETERS: citrated human plasma 78% final, 10 nM human FXIIa, 100 μM PFR-AMC; read-out: Human Plasma Assay: IC90
- Protocol: To analyze inhibition of plasma kallikrein in an ex vivo setting, the potency of compounds was measure in contact pathway-activated plasma assays. In a fluorogenic peptide substrate assay, test compounds dissolved in DMSO were added to sodium citrate collected human or rat plasma in a 96-well microplate. […] Fluorescence was immediately monitored by excitation/emission wavelengths of 360 nm/480 nm respectively over a period of 5 minutes in a microplate reader. […]
MEASURE NAME: IC90

Example cases with answers are listed next.
CN1CC(c2cc(C3CC3)cn3cc(CNc4ccnc(NC(=O)[C@H]5C[C@@H]5c5cccc(Cl)c5)c4)nc23)C1    < 400 nM
Cc1ccnc([C@H]2C[C@@H]2C(=O)Nc2nc(C)nc(N(C)Cc3cn4cc(C5CC5)cc(N5CC(=O)NC5=O)c4n3)n2)n1 (racemic)    400 to 1500 nM

Prompt: Reported IC90, molecule Cc1ccnc([C@H]2C[C@@H]2C(=O)Nc2ncc(C(F)(F)F)c(NCc3cn4cc(C5CC5)cc(N5CC(=O)N(C)C5=O)c4n3)n2)n1 (racemic) : ____
Response: < 400 nM

Prompt: Reported IC90, molecule O=C(Nc1cc(NCc2cn3cc(C4CC4)cc(N4CCN5CCCC5C4)c3n2)ccn1)[C@H]1C[C@@H]1c1cccc(Cl)c1 (stereo partly drawn) : ____
Response: 400 to 1500 nM

Prompt: Reported IC90, molecule Cc1ccnc([C@H]2C[C@@H]2C(=O)Nc2cc(N(C)Cc3cn4cc(C5CC5)cc(N5CC(=O)N(CCO)C5=O)c4n3)cc(C3CC3)n2)n1 : ____
Response: < 400 nM

Prompt: Reported IC90, molecule O=C(Nc1nc(O)nc(NCc2cn3cc(C4CC4)ccc3n2)n1)[C@H]1C[C@@H]1c1cccc(Cl)c1 : ____
Response: 1500 to 10000 nM
